Data origin, for the record: paper PMC5540273

Record form. Attribute: %Inh. Fill in for each entry.
system: MELK; details: concentration: 1 μM, replicates: in singlicate; n = 1;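 further: KINOMEscan kinase panel screen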
A complete answer gives the number followed by the unit.

Each of the following entries comes with a recorded value; kindly state %Inh for each.
1. Cl.NC(=O)c1cccc(Nc2nccc(Nc3ccc(Oc4cccc(Cl)c4)c(Cl)c3)n2)c1 [GW659008]
2. COc1cc(Nc2nccc(N3CCC(NC(=O)Nc4cc(C)ccc4C)C3)n2)cc(OC)c1OC (stereo not shown) [GSK1379762]
3. CC(=O)Nc1nc2cnc(Nc3cc(NC(=O)c4cccc(CCC#N)c4)ccc3C)nc2s1
4. O=C(Nc1ccccc1)Nc1cccc(Oc2ccc3nccn3n2)c1
5. COc1cccc(NC(=O)NC2CCN(c3ccnc(Nc4ccc(F)cc4)n3)C2)c1 (stereo not shown) [GSK1379721]
6. Cc1nnc(-c2ccc3occ(-c4ccc(S(C)=O)cc4)c3c2)[nH]1 (stereo not shown)

Reply:
1. 0%
2. 5%
3. 0%
4. 0%
5. 8%
6. 0%

###

system: RIOK3; conditions: concentration: 1 μM, replicates: in singlicate; n = 1
Is %Inh at least 9%? Then 1 (yes). If not, 0 (no).

Check out these entries, answers already filled in.
- Compound: "COc1ccc(Nc2nccc(NCCNC(=O)Nc3ccccc3F)n2)cc1 [GSK1379901]"
  Assigned category: "1 (yes)"
- Compound: "CCn1c(-c2cccnc2O)nc2cnccc21 [SB-736715]"
  Assigned category: "0 (no)"
- Compound: "O=S(=O)(c1ccc(-c2ccnc3[nH]ccc23)cc1)N1CCCC1 [GSK846226]"
  Assigned category: "1 (yes)"
- Compound: "Cc1c(O)cccc1Nc1ccnc2ccc(C(F)(F)F)cc12.Cl [GW466413]"
  Assigned category: "0 (no)"

Now take the following compound into account.
Ask: Kindly determine if %Inh recorded for Cc1cc(N2Cc3ccccc3C2)nc(Nc2ccc(S(=O)(=O)N3CCOCC3)cc2)n1.Cl [GSK1669917] is above or exactly 9%.
Reply: 1 (yes)

###

Record form. Attribute: %Inh. Fill in for each entry.
system: PIK3CG; conditions: concentration: 1 μM, replicates: in singlicate; n = 1
Give bare numbers, in %.

- Smiles text: "CC(C)(C)c1ccc(C(=O)Nc2cn3cc(-c4cccnc4)ccc3n2)cc1"
  Target or system: "PIK3CG"
  Observed value: 0

Each of the following entries comes with a recorded value; kindly state %Inh for each.
1. O=S(=O)(c1ccc(-c2ccnc3[nH]ccc23)cc1)N1CCCC1
2. COc1ccc2nc(-c3cccc(C)n3)nc(Nc3ccncc3)c2c1
3. Clc1cc(Cl)cc(Nc2ccnc(Nc3cc(Cl)cc(Cl)c3)n2)c1
4. COc1ccccc1-c1ccc2c(NC(=O)C3CC3)n[nH]c2n1

Reply:
[14, 0, 3, 0]

###

test system: EPHB2; settings: concentration: 1 μM, replicates: in singlicate; n = 1
Attribute measured: %Inh (%)
Answers are plain numbers, in %.

- Molecule: "Cc1c(O)cccc1Nc1ccnc2ccc(C(F)(F)F)cc12.Cl"
  %Inh [%]: 0

Each of the following entries comes with a recorded value; kindly state %Inh for each.
1. CC(=O)Nc1nc2cnc(Nc3cc(NC(=O)c4cccc(CCC#N)c4)ccc3C)nc2s1
2. O=C(Nc1ccc2c(c1)OCO2)NC1CCN(c2ccnc(Nc3ccc(F)cc3)n2)C1 (stereo not drawn)
3. Cc1cc(NCC(c2ccccc2)c2ccccc2)nc(NCc2ccc(C(F)(F)F)cc2)n1
4. COc1ccccc1CNC(=O)c1cc(C(=O)c2ccccc2C)c[nH]1
5. COC(=O)c1c(-c2ccccc2)c2cc(C(=O)O)ccc2c(=O)n1Cc1ccccc1
6. COc1ccccc1-c1ccc2c(NC(=O)C3CC3)n[nH]c2n1
7. Cc1ccc(NC(=O)Nc2cc(C(C)(C)C)nn2-c2ccccc2)cc1
8. CN(C)CCN(C)C(=O)c1cc(-c2ccncc2)c(-c2ccc(Cl)c(O)c2)o1.Cl.Cl

Reply:
1: 24; 2: 5; 3: 0; 4: 0; 5: 12; 6: 11; 7: 0; 8: 12

###

Record form. Attribute: %Inh. Fill in for each entry.
test system: EPHA8; details: concentration: 1 μM, replicates: in singlicate; n = 1
Answers are plain numbers, in %.

# count of solved cases: 2
- Molecule: "COc1cc(Nc2nccc(N3CCC(NC(=O)Nc4cc(C)ccc4C)C3)n2)cc(OC)c1OC (centres unmarked)"
  %Inh [%]: 33
- Molecule: "O=C(Nc1n[nH]c2cc(-c3cccc(F)c3F)ccc12)C1CC1"
  %Inh [%]: 0

Each of the following entries comes with a recorded value; kindly state %Inh for each.
1. Cl.c1ccc(-c2n[nH]cc2-c2ccnc(-c3ccc(CN4CCOCC4)cc3)c2)nc1
2. Cc1cccc(-c2nc(Nc3ccncc3)c3ccccc3n2)n1
3. Cn1ccc2ncnc(Oc3ccc(Nc4nc5ccccc5[nH]4)cc3)c21

Reply:
1. 19
2. 7
3. 0

###

system: GRK7; settings: concentration: 1 μM, replicates: in singlicate; n = 1
Attribute measured: %Inh
A complete answer gives the number followed by the unit.

# count of solved cases: 5
- Compound: "Cc1csc(-c2nc(Nc3ccncc3)c3ccccc3n2)n1 [GW869640]"
  %Inh: "17%"
- Compound: "Cl.NC(=O)c1cccc(Nc2nccc(Nc3ccc(Oc4cccc(Cl)c4)c(Cl)c3)n2)c1 [GW659008]"
  %Inh: "0%"
- Compound: "O=C(Nc1ccc2c(c1)OCO2)NC1CCN(c2ccnc(Nc3ccc(F)cc3)n2)C1 (stereo not drawn) [GSK1379724]"
  %Inh: "0%"
- Compound: "Cc1cccc(-c2nc(Nc3cccc(C(N)=O)c3)c3ccccc3n2)n1 [GW876019]"
  %Inh: "9%"
- Compound: "COc1ccc(CNC(=O)NC2CCN(c3ccnc(Nc4cc(OC)c(OC)c(OC)c4)n3)C2)cc1 (stereo not drawn) [GSK1379748]"
  %Inh: "0%"

Each of the following entries comes with a recorded value; kindly state %Inh for each.
1. Cc1ccccc1-n1cnc2c(N)ncnc21 [SKF-97510]
2. O=C(Nc1n[nH]c2cc(-c3cccc(F)c3F)ccc12)C1CC1 [SB-733894]
3. C[C@@H]1CCCCN1c1cc(-c2ccc3c(N)n[nH]c3c2)nc(N)n1 [GSK2258759]
4. CN(C)CCN(C)C(=O)c1cc(-c2ccncc2)c(-c2ccc(Cl)c(O)c2)o1.Cl.Cl [SB-710397]

Reply:
1: 0%; 2: 55%; 3: 0%; 4: 0%

###

test system: LRRK2; details: concentration: 1 μM, replicates: in singlicate; n = 1
Record form. Attribute: %Inh. Fill in for each entry.
Give bare numbers, in %.

# count of solved cases: 3
- Compound: "Cl.Oc1ccc(-c2nc(-c3ccccc3)[nH]c2-c2ccncc2)cc1"
  %Inh (%): 0
- Compound: "COc1cc2ncnc(Nc3ccc4nc(-c5ccccc5)[nH]c4c3)c2cc1OC.Cl"
  %Inh (%): 0
- Compound: "CC1=C(C(=O)Nc2cc3cn[nH]c3cc2F)C(c2ccc(C(F)(F)F)cc2)CC(=O)N1 (stereo not shown)"
  %Inh (%): 12

Each of the following entries comes with a recorded value; kindly state %Inh for each.
1. Fc1cc(Cl)ccc1Nc1ccnc2cc(I)ccc12
2. O=C(Nc1ccc2c(c1)OCO2)NC1CCN(c2ccnc(Nc3ccc(F)cc3)n2)C1 (stereo not shown)
3. O=C(Nc1n[nH]c2cc(-c3cccc(F)c3F)ccc12)C1CC1
4. CN1C(=O)C(Nc2ccc(Cl)c(C(=O)O)c2)=C(c2ccc(Cl)cc2)C1=O
5. NC(=O)c1nnc2ccccc2c1N
6. O=C(Nc1n[nH]c2nc(-c3nccs3)c(Br)cc12)C1CCCC1

Reply:
[37, 28, 0, 0, 75, 35]

Each of the following entries comes with a recorded value; kindly state %Inh for each.
1. Cc1cc(-c2ccc3c(c2)CC[C@@H](N[C@@H](C)c2ccccc2)C3)cnc1N.Cl
2. CS(=O)(=O)c1ccc(-c2c(-c3ncn[nH]3)sc(N3CCOCC3)c2C#N)cc1
3. CN(C)CCN(C)C(=O)c1cc(-c2ccncc2)c(-c2ccc(Cl)c(O)c2)o1.Cl.Cl
4. Cc1ccc(NC(=O)Nc2cccc(Cl)c2)cc1-c1ccc(C(=O)Nc2ccncc2)cc1
5. Cc1cccc(-c2nc(C)cc(Nc3ccncc3)n2)n1
6. Cc1cccc(-c2nc(Nc3ccncc3)c3ccccc3n2)n1
7. COC(=O)c1c(-c2ccccc2)c2cc(C(=O)O)ccc2c(=O)n1Cc1ccccc1

Reply:
1. 33
2. 0
3. 0
4. 0
5. 0
6. 0
7. 0

###

Record form. Attribute: %Inh. Fill in for each entry.
tested on: NEK4; conditions: concentration: 1 μM, replicates: in singlicate; n = 1
Numbers only, in %.

# count of solved cases: 2
- Molecule: "Cn1ccc2ncnc(Oc3ccc(NC(=O)Nc4ccccc4)cc3)c21"
  %Inh [%]: 0
- Molecule: "O=C(Nc1n[nH]c2nc(-c3nccs3)c(Br)cc12)C1CCCC1 [SB-742609]"
  %Inh [%]: 38

Each of the following entries comes with a recorded value; kindly state %Inh for each.
1. COc1ccc(Nc2nccc(-c3cccc(NC(=O)c4cc5cc(F)ccc5[nH]4)c3)n2)cc1 [GSK1229782]
2. CC(=O)Nc1nc2cnc(Nc3cc(NC(=O)c4cccc(CCC#N)c4)ccc3C)nc2s1
3. Cc1cccc(-c2nc(Nc3ccncc3)c3ccccc3n2)n1 [GW855857]
4. Fc1cccc(COc2nnc(-c3ccc4c(c3)CCO4)o2)c1

Reply:
[9, 0, 0, 0]

Each of the following entries comes with a recorded value; kindly state %Inh for each.
1. Cc1ccc(-c2cc(-c3c[nH]nc3-c3ccccn3)ccn2)cc1 [GW684088]
2. NC(=O)c1nnc2ccccc2c1N
3. COc1cccc(-c2cc(-c3c[nH]nc3-c3ccccn3)ccn2)c1 [GW680338]

Reply:
1: 0; 2: 4; 3: 13
